# viability, T/C per record follows
Test system: 958667-338-R-J2-PDC tumor spheroids viability
Test: Anticancer human tumor 958667-338-R-J2-PDC patient-derived colon adenocarcinoma cell line growth inhibition [PI3K]
Settings: second compound 3.16 µM; first compound 0.1 µM; stronger effect = lower value; spheroids with HUVEC and MSC
Source text: Combinatorial screen of targeted agents with the PI3K inhibitors inavolisib, alpelisib, duvelisib, and copanlisib in multi-cell type tumor spheroids A high-throughput screen of multi-cell type tumor spheroids was designed to identify active combinations of targeted small molecules and PI3K pathway inhibitors. […] Compounds. […] If the clinical Cmax for an agent had not been determined, the highest concentration tested was 10 microM. […]

[
  {
    "COMPOUND": "Cn1ncc(Cl)c1-c1cc(C(=O)NC(CN)Cc2cccc(F)c2)sc1Cl (stereo not drawn) + CC(Nc1ncnc2nc[nH]c12)c1cc2cccc(Cl)c2c(=O)n1-c1ccccc1",
    "viability, T/C [%]": 89.1
  },
  {
    "COMPOUND": "C=CC(=O)N1CCN(c2nc(=O)n(-c3c(C)ccnc3C(C)C)c3nc(-c4c(O)cccc4F)c(F)cc23)C(C)C1 (stereo not drawn) + CC(Nc1ncnc2nc[nH]c12)c1cc2cccc(Cl)c2c(=O)n1-c1ccccc1",
    "viability, T/C [%]": 88.1
  },
  {
    "COMPOUND": "Cn1ncnc1[C@H]1c2n[nH]c(=O)c3cc(F)cc(c23)N[C@@H]1c1ccc(F)cc1 + Cc1nc(NC(=O)N2CCCC2C(N)=O)sc1-c1ccnc(C(C)(C)C(F)(F)F)c1",
    "viability, T/C [%]": 91.3
  }
]

----------
# pIC50 per record follows
System: 958667-338-R-J2-PDC tumor spheroids viability
Test: Anticancer human tumor 958667-338-R-J2-PDC cell line growth inhibition [PI3K];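 also: spheroids exposed to compounds for seven days before readout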
Conditions: curve of first compound; second compound 0.0316 µM; spheroids with HUVEC and MSC
pIC50: −log10 of the molar value.
READOUT: pIC50

[
  {
    "MOLECULE": "CC(C)NCC(C(=O)N1CCN(c2ncnc3c2C(C)CC3O)CC1)c1ccc(Cl)cc1 (stereo not given) + COc1c(OCCCN2CCOCC2)ccc2c3n(c(=NC(=O)c4cnc(N)nc4)nc12)CCN3",
    "READOUT": "pIC50",
    "DATA VALUE": "< 5.00"
  },
  {
    "MOLECULE": "CC(Cn1ccc(-c2ccc(C#N)c(Cl)c2)n1)NC(=O)c1cc(C(C)O)[nH]n1 (stereo not given) + CC(Nc1ncnc2nc[nH]c12)c1cc2cccc(Cl)c2c(=O)n1-c1ccccc1",
    "READOUT": "pIC50",
    "DATA VALUE": "< 5.00"
  },
  {
    "MOLECULE": "C=CC(=O)N1CCN(c2nc(=O)n(-c3c(C)ccnc3C(C)C)c3nc(-c4c(O)cccc4F)c(F)cc23)C(C)C1 (stereo not given) + CC(Nc1ccc2c(c1)OCCn1cc(N3C(=O)OCC3C(F)F)nc1-2)C(N)=O",
    "READOUT": "pIC50",
    "DATA VALUE": "< 5.00"
  },
  {
    "MOLECULE": "CC(Cn1ccc(-c2ccc(C#N)c(Cl)c2)n1)NC(=O)c1cc(C(C)O)[nH]n1 (stereo not given) + CC(Nc1ccc2c(c1)OCCn1cc(N3C(=O)OCC3C(F)F)nc1-2)C(N)=O",
    "READOUT": "pIC50",
    "DATA VALUE": "< 5.00"
  },
  {
    "MOLECULE": "Cn1nccc1Nc1nccc(-c2ccn(C(CO)c3ccc(Cl)c(F)c3)c(=O)c2)n1 (stereo not given) + CC(Nc1ccc2c(c1)OCCn1cc(N3C(=O)OCC3C(F)F)nc1-2)C(N)=O",
    "READOUT": "pIC50",
    "DATA VALUE": "< 5.00"
  },
  {
    "MOLECULE": "Cn1ncnc1[C@H]1c2n[nH]c(=O)c3cc(F)cc(c23)N[C@@H]1c1ccc(F)cc1 + Cc1nc(NC(=O)N2CCCC2C(N)=O)sc1-c1ccnc(C(C)(C)C(F)(F)F)c1",
    "READOUT": "pIC50",
    "DATA VALUE": "< 7.00"
  },
  {
    "MOLECULE": "Cn1ncnc1[C@H]1c2n[nH]c(=O)c3cc(F)cc(c23)N[C@@H]1c1ccc(F)cc1 + CC(Nc1ccc2c(c1)OCCn1cc(N3C(=O)OCC3C(F)F)nc1-2)C(N)=O",
    "READOUT": "pIC50",
    "DATA VALUE": "< 7.00"
  },
  {
    "MOLECULE": "CC(Cn1ccc(-c2ccc(C#N)c(Cl)c2)n1)NC(=O)c1cc(C(C)O)[nH]n1 (stereo not given) + COc1c(OCCCN2CCOCC2)ccc2c3n(c(=NC(=O)c4cnc(N)nc4)nc12)CCN3",
    "READOUT": "pIC50",
    "DATA VALUE": "< 5.00"
  },
  {
    "MOLECULE": "CNC(=O)c1ccc(N2C(=S)N(c3ccc(C#N)c(C(F)(F)F)c3)C(=O)C2(C)C)cc1F + CC(Nc1ccc2c(c1)OCCn1cc(N3C(=O)OCC3C(F)F)nc1-2)C(N)=O",
    "READOUT": "pIC50",
    "DATA VALUE": "< 5.00"
  },
  {
    "MOLECULE": "C[C@@H](NC(=O)c1ncnc(N)c1Cl)c1ncc(C(=O)Nc2cc(C(F)(F)F)c(Cl)cn2)s1 + COc1c(OCCCN2CCOCC2)ccc2c3n(c(=NC(=O)c4cnc(N)nc4)nc12)CCN3",
    "READOUT": "pIC50",
    "DATA VALUE": "< 5.00"
  }
]

----------
# IC50 per record follows
System: 958667-338-R-J2-PDC tumor spheroids viability
Experiment: Anticancer human tumor 958667-338-R-J2-PDC cell line growth inhibition [PI3K];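 also: spheroids exposed to compounds for seven days before readout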
Conditions: curve of first compound; second compound 0.1 µM; spheroids with HUVEC and MSC

[
  {
    "COMPOUND": "CC(Cn1ccc(-c2ccc(C#N)c(Cl)c2)n1)NC(=O)c1cc(C(C)O)[nH]n1 (stereo not drawn) + Cc1nc(NC(=O)N2CCCC2C(N)=O)sc1-c1ccnc(C(C)(C)C(F)(F)F)c1",
    "IC50": "> 10 µM"
  },
  {
    "COMPOUND": "CC(C)NCC(C(=O)N1CCN(c2ncnc3c2C(C)CC3O)CC1)c1ccc(Cl)cc1 (stereo not drawn) + CC(Nc1ncnc2nc[nH]c12)c1cc2cccc(Cl)c2c(=O)n1-c1ccccc1",
    "IC50": "> 10 µM"
  },
  {
    "COMPOUND": "Cn1ncnc1[C@H]1c2n[nH]c(=O)c3cc(F)cc(c23)N[C@@H]1c1ccc(F)cc1 + CC(Nc1ccc2c(c1)OCCn1cc(N3C(=O)OCC3C(F)F)nc1-2)C(N)=O",
    "IC50": "> 0.1 µM"
  }
]

----------
Tested on: 958667-338-R-J2-PDC tumor spheroids viability
Test: Anticancer human tumor 958667-338-R-J2-PDC cell line growth inhibition [PI3K];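 also: spheroids exposed to compounds for seven days before readout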
Settings: second compound 1 µM; first compound 0.0316 µM; stronger effect = lower value; spheroids with HUVEC and MSC
// returns Condition not met unless viability, T/C is strictly below 70%, in which case Condition met

[
  {
    "COMPOUND": "CC1(C)CCC(Nc2ncc(C(F)(F)F)c(-c3c[nH]c4c(P(C)(C)=O)c(C#N)ccc34)n2)CN1 (stereo unspecified) + CC(Nc1ccc2c(c1)OCCn1cc(N3C(=O)OCC3C(F)F)nc1-2)C(N)=O",
    "LABEL VALUE": "Condition not met"
  },
  {
    "COMPOUND": "CC(C)n1nc(-c2ccc3oc(N)nc3c2)c2c(N)ncnc21 + COc1c(OCCCN2CCOCC2)ccc2c3n(c(=NC(=O)c4cnc(N)nc4)nc12)CCN3",
    "LABEL VALUE": "Condition met"
  },
  {
    "COMPOUND": "CC(C)n1nc(-c2ccc3oc(N)nc3c2)c2c(N)ncnc21 + Cc1nc(NC(=O)N2CCCC2C(N)=O)sc1-c1ccnc(C(C)(C)C(F)(F)F)c1",
    "LABEL VALUE": "Condition met"
  },
  {
    "COMPOUND": "CC(C)NCC(C(=O)N1CCN(c2ncnc3c2C(C)CC3O)CC1)c1ccc(Cl)cc1 (stereo unspecified) + Cc1nc(NC(=O)N2CCCC2C(N)=O)sc1-c1ccnc(C(C)(C)C(F)(F)F)c1",
    "LABEL VALUE": "Condition not met"
  },
  {
    "COMPOUND": "Cn1ncc(Cl)c1-c1cc(C(=O)NC(CN)Cc2cccc(F)c2)sc1Cl (stereo unspecified) + COc1c(OCCCN2CCOCC2)ccc2c3n(c(=NC(=O)c4cnc(N)nc4)nc12)CCN3",
    "LABEL VALUE": "Condition met"
  },
  {
    "COMPOUND": "CCN1CCN(Cc2ccc(Nc3ncc(F)c(-c4cc(F)c5nc(C)n(C(C)C)c5c4)n3)nc2)CC1 + CC(Nc1ncnc2nc[nH]c12)c1cc2cccc(Cl)c2c(=O)n1-c1ccccc1",
    "LABEL VALUE": "Condition not met"
  },
  {
    "COMPOUND": "CC(=O)c1c(C)c2cnc(Nc3ccc(N4CCNCC4)cn3)nc2n(C2CCCC2)c1=O + Cc1nc(NC(=O)N2CCCC2C(N)=O)sc1-c1ccnc(C(C)(C)C(F)(F)F)c1",
    "LABEL VALUE": "Condition not met"
  },
  {
    "COMPOUND": "Cn1ncnc1[C@H]1c2n[nH]c(=O)c3cc(F)cc(c23)N[C@@H]1c1ccc(F)cc1 + Cc1nc(NC(=O)N2CCCC2C(N)=O)sc1-c1ccnc(C(C)(C)C(F)(F)F)c1",
    "LABEL VALUE": "Condition not met"
  },
  {
    "COMPOUND": "Cn1ncnc1[C@H]1c2n[nH]c(=O)c3cc(F)cc(c23)N[C@@H]1c1ccc(F)cc1 + CC(Nc1ncnc2nc[nH]c12)c1cc2cccc(Cl)c2c(=O)n1-c1ccccc1",
    "LABEL VALUE": "Condition not met"
  },
  {
    "COMPOUND": "CC(C)NCC(C(=O)N1CCN(c2ncnc3c2C(C)CC3O)CC1)c1ccc(Cl)cc1 (stereo unspecified) + COc1c(OCCCN2CCOCC2)ccc2c3n(c(=NC(=O)c4cnc(N)nc4)nc12)CCN3",
    "LABEL VALUE": "Condition met"
  },
  {
    "COMPOUND": "Cn1nccc1Nc1nccc(-c2ccn(C(CO)c3ccc(Cl)c(F)c3)c(=O)c2)n1 (stereo unspecified) + CC(Nc1ccc2c(c1)OCCn1cc(N3C(=O)OCC3C(F)F)nc1-2)C(N)=O",
    "LABEL VALUE": "Condition met"
  },
  {
    "COMPOUND": "CC(C)n1nc(-c2ccc3oc(N)nc3c2)c2c(N)ncnc21 + CC(Nc1ccc2c(c1)OCCn1cc(N3C(=O)OCC3C(F)F)nc1-2)C(N)=O",
    "LABEL VALUE": "Condition met"
  },
  {
    "COMPOUND": "CNC(=O)c1ccc(N2C(=S)N(c3ccc(C#N)c(C(F)(F)F)c3)C(=O)C2(C)C)cc1F + Cc1nc(NC(=O)N2CCCC2C(N)=O)sc1-c1ccnc(C(C)(C)C(F)(F)F)c1",
    "LABEL VALUE": "Condition not met"
  },
  {
    "COMPOUND": "CC(C)n1nc(-c2ccc3oc(N)nc3c2)c2c(N)ncnc21 + CC(Nc1ncnc2nc[nH]c12)c1cc2cccc(Cl)c2c(=O)n1-c1ccccc1",
    "LABEL VALUE": "Condition not met"
  },
  {
    "COMPOUND": "CC(=O)c1c(C)c2cnc(Nc3ccc(N4CCNCC4)cn3)nc2n(C2CCCC2)c1=O + CC(Nc1ncnc2nc[nH]c12)c1cc2cccc(Cl)c2c(=O)n1-c1ccccc1",
    "LABEL VALUE": "Condition not met"
  }
]
